We begin with a simple list: items and their reported IC50.
Assay: microbe, parasite or virus in culture
Settings: Mycobacterium tuberculosis, 72 h, read-out: pIC50 (converted)

| compound | IC50 |
| --- | --- |
| O=S(=O)(Cc1ccc(Br)cc1)NCCO | > 50.1 µM |
| CCCN(CCO)CC(=O)N1CCCC(C)C1 (configuration not stated) | > 501 µM |
| Cc1cc2n(n1)CC(CNC1CCN(C3CC3)CC1)CN2 (configuration not stated) | > 50.1 µM |
| Cc1ccc(CN2CC[C@H](c3nnc(COc4ccc(F)cc4)o3)C2)o1 | > 50.1 µM |
| CCOc1ccc(N2CCCN=C2NC(=O)c2ccc(Cl)cc2)cc1 | > 50.1 µM |
| Cc1cc(N2CCN(C(=O)Cc3ccc4c(c3)OCO4)CC2)cc(C)n1 | > 50.1 µM |
| Cc1cc(Cl)ccc1NC(=O)CSc1n[nH]c(N)n1 | > 501 µM |

====

Assay: microbe, parasite or virus in culture
Conditions: Mycobacterium tuberculosis, 72 h, read-out: pIC50 (converted)
We begin with a simple list: items and their reported log10(IC50).
experimental_endpoint: log10(IC50) (log10 of the value in µM)

| molecule | log10(IC50) |
| --- | --- |
| NCCCOc1ncc(C(F)(F)F)cc1Cl | 2.00 |
| O=C(Nc1ccccn1)C1Cc2ccccc2O1 (stereo not drawn) | 2.43 |
| Cc1ccc(C(N)c2ccccn2)cc1 (stereo not drawn) | 1.96 |
| CN(C)C1(CN)Cc2ccccc2C1 | 1.91 |
| CC(C)c1ccc(C(CN)N2CCc3sccc3C2)cc1 (stereo not drawn) | 1.31 |
| Cc1onc(N)c1S(=O)(=O)NCc1ccccc1Cl | 2.19 |
| NCc1cnn(-c2cccc(Cl)c2)c1 | 2.41 |
| Cc1noc(NC(=O)c2ccc(Br)s2)n1 | 1.52 |
| CC(Nc1ccc(C#N)cn1)c1ccc2c(c1)OCO2 (stereo not drawn) | 2.33 |
| COc1ccc(C(O)CNC(=O)Nc2nncs2)cc1 (stereo not drawn) | 2.29 |
| NCc1nc(C(F)F)no1 | 2.46 |
| c1cncc(-c2nc(SCC3CCCCO3)n[nH]2)c1 (stereo not drawn) | 2.36 |
| Cc1cccc(CN(CC(N)=O)Cc2ccccn2)c1 | 2.29 |
| NCCc1ccc(OCC(F)(F)F)nc1 | 2.05 |
| CCOC(=O)c1cnc(N2CCNCC2)s1 | 2.41 |
| CCS(=O)(=O)N(C)CCCNc1ccc(Cl)cn1 | 2.11 |
| Cc1noc(NC(=O)c2ccc(C)c(F)c2)n1 | 1.48 |
| O=C1CCCN1Cc1nnc(SCc2ccc3c(c2)CCC3)o1 | 1.34 |
| O=C(CCC(F)(F)F)NCC1CCCS1 (stereo not drawn) | 0.92 |
| Fc1ccccc1CN1CCCC2(CCN(c3ncccn3)C2)C1 (stereo not drawn) | 1.48 |
| CCOC(=O)N1CCC(NC(=O)c2ccsc2)CC1 | 2.14 |

====

Assay: microbe, parasite or virus in culture
Conditions: Mycobacterium tuberculosis, 72 h, read-out: pIC50 (converted)
We begin with a simple list: items and their reported log10(IC50).
experimental_endpoint: log10(IC50) (log10 of the value in µM)

| compound | log10(IC50) |
| --- | --- |
| COc1cccc(S(=O)(=O)CCN2CCCC2CO)c1 (stereo unspecified) | 2.66 |
| NCC(CO)Cc1ccc(F)c(Br)c1 (stereo unspecified) | 2.57 |
| Cc1cccc(CC(=O)N2CCn3cnnc3C2)c1 | 2.23 |
| COC(=O)COc1ccc(C(C)=O)cc1Cl | 2.42 |
| Cl.Cl.Clc1cccc(C[C@@H]2NCCC[C@@H]2Nc2ccccc2)c1 | 1.08 |
| COc1ccc(S(=O)(=O)N2CC(NCC3CC3)C2)cc1 | 2.32 |
| COc1ccc(C(N)c2ccc(OC)cc2OC)cc1 (stereo unspecified) | 2.27 |
| CC(C)CS(=O)(=O)NCc1ccc2c(c1)OCO2 | 2.26 |
| CC(c1ccccc1)N(C)C(=O)CN1CCCc2cccc(F)c21 (stereo unspecified) | 1.49 |
| Nc1cc(=O)[nH]n1-c1ccc(C(F)(F)F)cn1 | 2.29 |
| COc1ccccc1OCC(C)CN (stereo unspecified) | 1.92 |
| Clc1ccc(Cc2nc(CNCCn3cccn3)cs2)cc1 | 1.36 |
| CC(C)COCC(O)Cn1nnc(-c2ccco2)n1 (stereo unspecified) | 1.95 |
| CC(C)(C)c1ccc2c(c1)C(N)C(=O)N2 (stereo unspecified) | 2.58 |
| COc1ccc(N2CCCNCC2)cc1 | 2.49 |
| Cc1cc(C(=O)NCc2ccc(F)cc2)[nH]n1 | 1.45 |
| CCN(Cc1ccc(Cl)c(Cl)c1)C(=O)CCS(C)(=O)=O | 2.11 |
| O=S(=O)(NCCNc1ccc(-n2cccn2)nn1)c1ccccc1 | 1.40 |
| CC(C)C(O)CCNC(=O)Cc1cccc(O)c1 (stereo unspecified) | 2.63 |
| CCn1ncnc1CN1CC(Oc2ccccc2)C1 | 2.18 |
| COc1ccc([S+]([O-])Cc2noc(C)n2)cc1 (stereo unspecified) | 2.31 |
| Cc1cc(C)c(CN2CCOC(CN)C2)cc1C (stereo unspecified) | 2.26 |
| O=C(Nc1ccnc(CO)c1)c1ccc(F)cc1I | 2.56 |
| OCC(O)CSCc1nc(-c2ccc(Cl)cc2)no1 (stereo unspecified) | 2.59 |
| CN1CCN(C(=O)Cn2ccc3ccc(Br)cc32)CC1 | 2.12 |
| CCn1ccc(C(=O)NCc2ccco2)n1 | 2.37 |
| CC(=O)N1CCC(C(=O)c2ccc(C)cc2)CC1 | 2.00 |
| O=C(c1cc(C2CC2)[nH]n1)N1CCN(Cc2ccc3c(c2)OCO3)CC1 | 0.99 |
| NCCc1ccc(-n2cccn2)cc1 | 2.27 |
| CC(NS(=O)(=O)N(C)C1CCCCC1)c1ccccn1 (stereo unspecified) | 1.88 |
| CC(C)c1cccc(S(=O)(=O)NCCN)c1 | 2.34 |

All values here come from ChEMBL document CHEMBL3988442.
